System: MOLT-4
test-summary: NCI tumour cell line growth inhibition, 48 h
Calls of active or inactive are those of the source. Cut-off read from the data, not from the text of the source: active = GI50 up to about 1.1 µM and inactive = higher.
Exercise: state measured GI50 for each of the molecules provided.

# GI50 (molecule: Nc1nc(OCC2CCCCC2)c2nc[nH]c2n1 ) is 8.47 µM (inactive)

For record O=NN(CCCl)C(=O)N[C@H]1CC[C@@H](CC(=O)O)CC1 the listed GI50 is 44 µM (inactive)

GI50 recorded for this molecule, CC(C)(C)OC(=O)NCCc1cccc2c1oc1c(CCC(=O)O)cccc12 , is > 100 µM (inactive)

Kindly note the recorded GI50 for CC(=O)O[C@@H]1[C@H]2[C@@H](OC(=O)c3ccccc3)[C@@H](C)C[C@]2(O)[C@H](OC(C)=O)[C@@]2(C)[C@@H]3CC(C)(C)C(=O)[C@]3(OC(C)=O)C[C@@]12C , which is 2.09 µM (inactive)

GI50 for COc1ccc(C2S/C(=C\c3ccc(O)cc3)C(=O)N2NC(=O)Cc2ccccc2)cc1 (stereo not given) is > 100 µM (inactive)

// GI50 value for CSC1=N/C(=C\c2ccc(C)cc2)C(=O)N1CN1CCOCC1 : 28.9 µM (inactive)

Lab book: GI50 of CO/N=C1\CCC2(O)C3Cc4ccc(O)c5c4C2(CCN3CC2CC2)[C@H]1O5 (stereo not given in full) noted as > 100 µM (inactive)

Kindly note the recorded GI50 for Cc1ccc(-n2nnc(C#N)c2O)cc1 , which is > 100 µM (inactive)

Entry Oc1ccc(C[C@@H]2CN[C@H](Cc3ccc(O)c(Br)c3)CN2)cc1 — recorded GI50 = > 100 µM (inactive)

Notebook: CC(=O)Nc1ccc(C(=O)NN2C(=O)CSC2c2ccccc2)cc1 (stereo not given) , GI50 read as > 100 µM (inactive)

The recorded GI50 for entry CCOC(=O)NC(NCC(O)c1ccccc1)(C(F)(F)F)C(F)(F)F (stereo not given) equals > 100 µM (inactive)

Just so you know, measured GI50 for COC(=O)C1=C(C(=O)OC)C2OC1c1cc3ccccc3cc12 came out at 1.54 µM (inactive)

# GI50 (molecule: CCOc1ccc(Nc2nc(C)c(C(=O)/C=C/c3ccc(Cl)cc3Cl)s2)cc1 ) is 23 µM (inactive)

Per the record, N#C/C(N)=C(C#N)/N=C/N has GI50 of > 100 µM (inactive)

Notebook: CC(=O)c1c2c(cc3c1CC1(Cc4ccccc4C1=O)C3)CCC2 (stereo not given) , GI50 read as 10.6 µM (inactive)

The measured GI50 associated with CCCCCCN(CCCCCC)C1=CC(=O)C(=O)c2ccccc21 reads 18.7 µM (inactive)

Summary for this molecule, COC(=O)C1=C(C(=O)OC)C2(C(=O)OC)OC1(OC)C(C1(C(=O)OC)C(C(=O)OC)=C1C(=O)OC)=C2C(=O)OC (stereo not given) : GI50 is > 100 µM (inactive)

What the record says about COC[C@@H]1Cc2cc(OC)c3c(c2[C@H](c2ccc(OC)c(OC)c2)[C@H]1COC)OCO3 [HYPOPHYLLANTHIN] : GI50 is > 100 µM (inactive)

Per the record, COC(=O)/C=C/c1cc2c(cc1-c1c(C(=O)O)cc(OC)c(OC)c1OC)OCO2 has GI50 of > 10 µM (inactive)

Value of measured GI50 for the entry NC(=S)Nc1ccc2c(c1)oc1ccccc12 : 7.1 µM (inactive)

Reported GI50 of COC1=C(OC)C(=O)c2cc(C)c(=O)c(C)cc2C1=O : 2.27 µM (inactive)

response.value for CC(C)(C)OC(=O)N(CCCN)CCCCN(CCCN)C(=O)OC(C)(C)C (field: GI50) = > 100 µM (inactive)

// GI50 value for OCCNc1nc2c(N3CCCC3)nc(N3CCNCC3)nc2nc1NCc1ccccc1 : 16 µM (inactive)

Form: molecule = C#CCNC(CSSCC(N)C(=O)O)C(=O)O (stereo not given) ; GI50 = > 100 µM (inactive)

Entry C=C1C(=O)O[C@@H]2C[C@@]3(C)CCCC(=C)[C@@H]3C[C@H]12.C=C1C(=O)O[C@@H]2C[C@@]3(C)CCC[C@H](C)C3=C[C@H]12 ; GI50 = 1.34 µM (inactive)

Quick note, GI50 for C=C(C(=O)OC)N1C(=O)CC(C)C1=O (stereo not given) landed at 3.33 µM (inactive)

molecule CN(C)CCOc1ccc2[nH]c(C(=O)N3CC(CCl)c4c3cc([N+](=O)[O-])c3ccccc43)cc2c1 (stereo not given) , GI50 observed: 1.29 µM (inactive)

Entry under test: CC(C)(C)[Si](C)(C)OCCCCC1CC2(S(=O)(=O)C3=CC=C=C=C3)ON1CC2S(=O)(=O)c1ccccc1 (stereo not given) . Its GI50 was > 100 µM (inactive)

Cc1ccc(-c2nc(C)c(C(=O)Nc3ccc(Cl)cc3)s2)cc1 yielded GI50 of > 100 µM (inactive)

Measured GI50, O=C(O)CCC/N=C(\C(=N\CCCC(=O)O)c1ccccc1)c1ccccc1 : > 100 µM (inactive)

Reported GI50 ( O=C(O)/C=N/NC(=S)NC1CCCCC1 ) = > 100 µM (inactive)

The molecule listed as COC(=O)c1cc2c(cc1O)[C@@H](NC(C)=O)CCc1cc(OC)c(OC)c(OC)c1-2 shows GI50 equal to 0.0796 µM (active)

Recorded GI50 (molecule C[C@]12CCC3[C@@H](CC[C@@H]4c5nonc5CC[C@]34C)C1C/C(=N/O)C2=O (stereo not given in full) ): 59.7 µM (inactive)

Documented GI50 of COc1cc(C(CC(OC)OC)=C(C#N)C#N)cc(OC)c1OC : 7.26 µM (inactive)

Recorded result, O=C1c2ccccc2C(=O)c2c(O)c(O)cc(O)c21 [PURPURIN] , GI50: 34 µM (inactive)

In plain terms, Cc1ccc(C2C(Cl)C(=O)N2n2cnc3ccccc3c2=O)cc1 (stereo not given) has a documented GI50 of 39.4 µM (inactive)

Per the record, O=C(O)CN(c1ccc(F)cc1)S(=O)(=O)c1ccccc1 has GI50 of > 100 µM (inactive)

// sample O=C1C=C(Nc2nc(O)cc(C(=O)O)n2)c2ccccc2C1=O , its GI50 was > 100 µM (inactive)

Sure, the documented GI50 for O=C(OCc1ccccc1)N1c2cc([N+](=O)[O-])ccc2C(=O)N2CCC[C@H]2C1O (stereo not given in full) is > 100 µM (inactive)

GET /value?item= O=C(NCCN1C(=O)CN=C(c2ccc(Cl)cc2)c2cc(Cl)ccc21)OCc1ccccc1 &field=GI50 returns 0.255 µM (active)
